Taken from ChEMBL document CHEMBL5370593.

Exercise: state measured Ki for each of the compounds provided.
- Measured On: 5-hydroxytryptamine receptor 6 (Homo sapiens, UniProt P50406)
- Sequence (P50406 whole entry): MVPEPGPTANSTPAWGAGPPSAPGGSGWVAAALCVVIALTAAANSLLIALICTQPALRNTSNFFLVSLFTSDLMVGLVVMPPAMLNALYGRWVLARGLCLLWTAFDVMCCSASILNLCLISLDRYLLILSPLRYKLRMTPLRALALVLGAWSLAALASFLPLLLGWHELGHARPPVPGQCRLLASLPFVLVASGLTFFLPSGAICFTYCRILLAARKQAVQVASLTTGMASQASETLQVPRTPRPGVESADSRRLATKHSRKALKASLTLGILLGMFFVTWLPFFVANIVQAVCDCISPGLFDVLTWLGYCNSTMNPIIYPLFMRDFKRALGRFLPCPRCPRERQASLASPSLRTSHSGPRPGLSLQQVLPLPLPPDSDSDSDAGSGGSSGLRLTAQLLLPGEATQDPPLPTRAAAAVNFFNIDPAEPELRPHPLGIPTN
- Assay Remarks: Displacement of [3H] LSD from human recombinant 5-HT6 receptor expressed in human HeLa cells assessed as inhibition constant incubated for 120 mins by spectrophotometric analysis
Report the figure in nM without appending any unit label.

Query Ki for O=C(O)/C=C/C(=O)O.[2H]C([2H])(Cc1c[nH]c2ccccc12)N(C)C
500

Query Ki for CN(C)CCc1c[nH]c2ccccc12.O=C(O)/C=C/C(=O)O
560

----------
- Measured On: 5-hydroxytryptamine receptor 2A (Homo sapiens, UniProt P28223)
- Sequence (P28223 whole entry): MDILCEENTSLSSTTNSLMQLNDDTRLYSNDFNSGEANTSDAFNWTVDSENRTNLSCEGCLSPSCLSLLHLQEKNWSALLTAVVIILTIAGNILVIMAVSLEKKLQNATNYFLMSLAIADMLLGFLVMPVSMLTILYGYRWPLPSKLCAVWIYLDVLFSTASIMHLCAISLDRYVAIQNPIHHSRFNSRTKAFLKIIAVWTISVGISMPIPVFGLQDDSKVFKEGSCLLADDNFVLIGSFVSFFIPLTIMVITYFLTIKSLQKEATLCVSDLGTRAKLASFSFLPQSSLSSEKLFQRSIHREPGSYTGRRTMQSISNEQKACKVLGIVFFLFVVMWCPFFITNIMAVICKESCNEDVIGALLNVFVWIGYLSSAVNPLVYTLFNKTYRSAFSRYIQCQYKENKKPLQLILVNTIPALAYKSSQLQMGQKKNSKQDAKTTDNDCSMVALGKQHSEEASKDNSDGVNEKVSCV
- Assay Remarks: Displacement of [3H] ketanserin from human recombinant 5-HT2A receptor expressed in CHO-K1 cells incubated for 60 mins by spectrophotometric analysis
Exercise: state measured pIC50 for each of the compounds provided.
Remember, pIC50 is on a log scale: it is -log10 of the molar concentration.

Please tell me the measured pIC50 for O=C(O)/C=C/C(=O)O.[2H]C([2H])(Cc1c[nH]c2ccccc12)N(C)C ; system: 5-hydroxytryptamine receptor 2A (Homo sapiens, UniProt P28223).
6.66

Please tell me the measured pIC50 for CN(C)CCc1c[nH]c2ccccc12.O=C(O)/C=C/C(=O)O ; system: 5-hydroxytryptamine receptor 2A (Homo sapiens, UniProt P28223).
6.82

----------
- Measured On: 5-hydroxytryptamine receptor 5A (Homo sapiens, UniProt P47898)
- Sequence (P47898 whole entry): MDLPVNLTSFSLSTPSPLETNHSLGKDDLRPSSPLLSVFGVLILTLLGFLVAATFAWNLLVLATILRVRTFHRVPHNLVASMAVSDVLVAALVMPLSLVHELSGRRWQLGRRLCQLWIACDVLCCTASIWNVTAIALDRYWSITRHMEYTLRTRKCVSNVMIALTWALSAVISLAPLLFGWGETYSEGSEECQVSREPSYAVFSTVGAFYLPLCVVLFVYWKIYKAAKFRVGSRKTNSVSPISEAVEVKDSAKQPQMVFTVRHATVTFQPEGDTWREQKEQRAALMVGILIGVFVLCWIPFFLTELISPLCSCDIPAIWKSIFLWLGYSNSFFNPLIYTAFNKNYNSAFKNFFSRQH
- Assay Remarks: Displacement of [3H] LSD from human recombinant 5-HT5A receptor expressed in CHO-K1 cells assessed as inhibition constant incubated for 60 mins by spectrophotometric analysis
Exercise: state measured Ki for each of the compounds provided.
Report the figure in nM without appending any unit label.

Query Ki for CN(C)CCc1c[nH]c2ccccc12.O=C(O)/C=C/C(=O)O
1710

Query Ki for O=C(O)/C=C/C(=O)O.[2H]C([2H])(Cc1c[nH]c2ccccc12)N(C)C
1710

----------
- Measured On: Alpha-1B adrenergic receptor (Homo sapiens, UniProt P35368)
- Sequence (P35368 whole entry): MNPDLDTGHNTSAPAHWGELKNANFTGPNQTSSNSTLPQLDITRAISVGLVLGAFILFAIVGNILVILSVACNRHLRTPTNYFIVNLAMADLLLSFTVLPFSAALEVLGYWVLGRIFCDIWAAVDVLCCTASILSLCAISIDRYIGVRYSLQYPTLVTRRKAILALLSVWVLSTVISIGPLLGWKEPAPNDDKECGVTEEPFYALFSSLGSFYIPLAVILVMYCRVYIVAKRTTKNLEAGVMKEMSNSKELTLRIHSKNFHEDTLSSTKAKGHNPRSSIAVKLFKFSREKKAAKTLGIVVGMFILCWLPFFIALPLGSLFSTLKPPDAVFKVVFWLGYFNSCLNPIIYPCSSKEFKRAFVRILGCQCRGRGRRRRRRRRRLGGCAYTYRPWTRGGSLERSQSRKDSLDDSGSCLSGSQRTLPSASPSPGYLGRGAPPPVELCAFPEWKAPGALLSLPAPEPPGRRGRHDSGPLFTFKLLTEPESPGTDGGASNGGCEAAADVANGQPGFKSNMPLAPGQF
- Assay Remarks: Displacement of [3H] prazosin from human recombinant adrenergic alpha-1b receptor expressed in […] cells assessed as inhibition constant incubated for 60 mins by spectrophotometric analysis
- Type: cell-based
Exercise: state measured Ki for each of the compounds provided.
Report the figure in nM without appending any unit label.

Query Ki for O=C(O)/C=C/C(=O)O.[2H]C([2H])(Cc1c[nH]c2ccccc12)N(C)C
370

Query Ki for CN(C)CCc1c[nH]c2ccccc12.O=C(O)/C=C/C(=O)O
260

----------
Exercise: state measured Ki for each of the compounds provided.
- Assay Remarks: Displacement of [3H] idazoxan from imidazoline receptor 2 (unknown origin) assessed as inhibition constant by spectrophotometric analysis
- Design: species or system Homo sapiens
Report the figure in µM without appending any unit label.

Query Ki for O=C(O)/C=C/C(=O)O.[2H]C([2H])(Cc1c[nH]c2ccccc12)N(C)C
1.73

Query Ki for CN(C)CCc1c[nH]c2ccccc12.O=C(O)/C=C/C(=O)O
1.29

----------
- Measured On: UniProt:P25100
- Sequence (P25100 whole entry): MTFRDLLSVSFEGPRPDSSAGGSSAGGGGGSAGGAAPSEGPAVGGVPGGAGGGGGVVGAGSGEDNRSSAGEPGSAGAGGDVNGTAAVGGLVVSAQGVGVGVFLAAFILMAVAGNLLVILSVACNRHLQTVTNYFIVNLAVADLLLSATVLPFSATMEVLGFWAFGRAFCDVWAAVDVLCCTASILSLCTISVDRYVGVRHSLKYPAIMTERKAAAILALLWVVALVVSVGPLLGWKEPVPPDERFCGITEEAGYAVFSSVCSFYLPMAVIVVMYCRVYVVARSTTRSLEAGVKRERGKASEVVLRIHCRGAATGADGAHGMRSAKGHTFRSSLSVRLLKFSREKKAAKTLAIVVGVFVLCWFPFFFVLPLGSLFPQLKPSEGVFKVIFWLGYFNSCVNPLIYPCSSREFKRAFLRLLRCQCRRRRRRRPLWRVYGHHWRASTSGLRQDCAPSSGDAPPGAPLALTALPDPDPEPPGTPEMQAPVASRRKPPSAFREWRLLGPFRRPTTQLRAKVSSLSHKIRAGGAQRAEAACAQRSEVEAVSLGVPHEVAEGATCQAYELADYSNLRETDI
- Assay Remarks: Displacement of [3H] prazosin from human recombinant adrenergic alpha-1d receptor expressed in HEK293 cells assessed as inhibition constant incubated for 60 mins by spectrophotometric analysis
Endpoint: Ki
The answer should read as a number with its unit following.

Query Ki for O=C(O)/C=C/C(=O)O.[2H]C([2H])(Cc1c[nH]c2ccccc12)N(C)C
1600 nM

Query Ki for CN(C)CCc1c[nH]c2ccccc12.O=C(O)/C=C/C(=O)O
1510 nM

----------
- Measured On: 5-hydroxytryptamine receptor 7 (Homo sapiens, UniProt P34969)
- Sequence (P34969 whole entry): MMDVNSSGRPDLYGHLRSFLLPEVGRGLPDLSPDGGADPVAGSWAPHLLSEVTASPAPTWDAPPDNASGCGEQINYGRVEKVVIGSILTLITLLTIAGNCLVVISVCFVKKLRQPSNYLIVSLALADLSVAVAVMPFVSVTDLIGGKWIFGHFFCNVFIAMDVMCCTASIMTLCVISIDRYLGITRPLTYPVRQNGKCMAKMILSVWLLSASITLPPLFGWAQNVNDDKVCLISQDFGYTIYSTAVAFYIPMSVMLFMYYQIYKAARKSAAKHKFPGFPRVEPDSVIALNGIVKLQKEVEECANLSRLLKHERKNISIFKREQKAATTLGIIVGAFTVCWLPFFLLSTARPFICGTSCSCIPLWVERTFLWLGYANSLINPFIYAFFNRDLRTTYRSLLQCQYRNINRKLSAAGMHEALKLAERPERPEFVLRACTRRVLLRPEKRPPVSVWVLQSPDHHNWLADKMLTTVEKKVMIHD
- Assay Remarks: Displacement of [3H] LSD from human recombinant 5-HT7 receptor expressed in CHO-K1 cells assessed as inhibition constant incubated for 120 mins by spectrophotometric analysis
Endpoint: pKi
Remember, pKi is on a log scale: it is -log10 of the molar concentration.

Query pKi for CN(C)CCc1c[nH]c2ccccc12.O=C(O)/C=C/C(=O)O
7.15

Query pKi for O=C(O)/C=C/C(=O)O.[2H]C([2H])(Cc1c[nH]c2ccccc12)N(C)C
7.30

----------
- Assay Remarks: Plasma protein binding in human assessed as unbound fraction by rapid equilibrium dialysis analysis
- Format: ADME, cell-free
Endpoint: fraction unbound
Write no unit; give the number alone.

Query fraction unbound for O=C(O)/C=C/C(=O)O.[2H]C([2H])(Cc1c[nH]c2ccccc12)N(C)C
0.7

Query fraction unbound for CNS(=O)(=O)Cc1ccc2[nH]cc(CCN(C)C)c2c1
0.68

Query fraction unbound for CN(C)CCc1c[nH]c2ccccc12.O=C(O)/C=C/C(=O)O
0.68

----------
- Measured On: Neuronal acetylcholine receptor; alpha3/beta4 (Homo sapiens, UniProt P30926+P32297)
- Sequence (P30926 whole entry): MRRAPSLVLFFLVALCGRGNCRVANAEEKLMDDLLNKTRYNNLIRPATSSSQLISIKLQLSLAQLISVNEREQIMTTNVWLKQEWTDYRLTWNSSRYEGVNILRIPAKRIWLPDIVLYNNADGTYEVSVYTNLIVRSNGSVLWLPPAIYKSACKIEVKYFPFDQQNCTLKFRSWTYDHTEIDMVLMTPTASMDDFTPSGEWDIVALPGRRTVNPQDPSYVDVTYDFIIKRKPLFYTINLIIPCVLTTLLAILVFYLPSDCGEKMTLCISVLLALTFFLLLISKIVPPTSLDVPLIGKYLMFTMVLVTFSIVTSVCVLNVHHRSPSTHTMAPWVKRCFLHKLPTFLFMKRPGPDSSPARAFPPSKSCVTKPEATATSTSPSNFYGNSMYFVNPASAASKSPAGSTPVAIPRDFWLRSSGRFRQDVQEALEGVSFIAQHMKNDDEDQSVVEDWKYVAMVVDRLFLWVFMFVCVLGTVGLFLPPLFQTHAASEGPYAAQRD
- Sequence (P32297 whole entry): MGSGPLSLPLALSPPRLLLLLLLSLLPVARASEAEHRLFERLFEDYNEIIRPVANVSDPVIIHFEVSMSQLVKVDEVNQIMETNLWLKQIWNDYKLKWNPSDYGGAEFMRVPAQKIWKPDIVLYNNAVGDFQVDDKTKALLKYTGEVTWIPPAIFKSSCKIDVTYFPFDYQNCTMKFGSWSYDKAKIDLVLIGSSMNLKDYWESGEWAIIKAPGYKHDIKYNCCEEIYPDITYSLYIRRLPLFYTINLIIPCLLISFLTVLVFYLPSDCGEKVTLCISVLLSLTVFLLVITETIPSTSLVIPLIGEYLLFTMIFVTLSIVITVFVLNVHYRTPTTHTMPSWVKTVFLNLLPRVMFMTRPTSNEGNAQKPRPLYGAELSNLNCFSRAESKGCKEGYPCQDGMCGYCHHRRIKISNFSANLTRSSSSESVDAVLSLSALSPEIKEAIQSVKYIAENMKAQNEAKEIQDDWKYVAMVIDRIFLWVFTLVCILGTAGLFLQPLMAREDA
- Assay Remarks: Displacement of [125I]-epibatidine from human recombinant nAChR alpha3beta4 receptor expressed in CHO-K1 cells incubated for 60 mins by spectrophotometric analysis
Endpoint: IC50

Query IC50 for CN(C)CCc1c[nH]c2ccccc12.O=C(O)/C=C/C(=O)O
4.2 µM

Query IC50 for O=C(O)/C=C/C(=O)O.[2H]C([2H])(Cc1c[nH]c2ccccc12)N(C)C
4.4 µM

----------
- Measured On: 5-hydroxytryptamine receptor 1B (Homo sapiens)
- Sequence (P28222 whole entry): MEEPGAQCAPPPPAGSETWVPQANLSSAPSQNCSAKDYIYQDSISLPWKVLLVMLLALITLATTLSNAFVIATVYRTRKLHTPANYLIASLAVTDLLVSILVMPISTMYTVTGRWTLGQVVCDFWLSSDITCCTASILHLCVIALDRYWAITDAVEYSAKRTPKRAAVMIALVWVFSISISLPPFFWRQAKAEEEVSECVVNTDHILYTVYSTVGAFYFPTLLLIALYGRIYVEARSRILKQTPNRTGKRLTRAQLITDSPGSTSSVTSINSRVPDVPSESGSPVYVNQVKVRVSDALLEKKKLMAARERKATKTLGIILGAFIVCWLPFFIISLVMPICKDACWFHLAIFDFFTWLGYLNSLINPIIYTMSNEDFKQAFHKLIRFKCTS
- Assay Remarks: Displacement of [3H] GR125743 from human recombinant 5-HT1B receptor expressed in […] cells assessed as inhibition constant incubated for 90 mins by spectrophotometric analysis
Endpoint: Ki (nM)
Report the figure in nM without appending any unit label.

Query Ki for CN(C)CCc1c[nH]c2ccccc12.O=C(O)/C=C/C(=O)O
1840

Query Ki for O=C(O)/C=C/C(=O)O.[2H]C([2H])(Cc1c[nH]c2ccccc12)N(C)C
1520

----------
- Measured On: Amine oxidase [flavin-containing] A (Homo sapiens, UniProt P21397)
- Sequence (P21397 whole entry): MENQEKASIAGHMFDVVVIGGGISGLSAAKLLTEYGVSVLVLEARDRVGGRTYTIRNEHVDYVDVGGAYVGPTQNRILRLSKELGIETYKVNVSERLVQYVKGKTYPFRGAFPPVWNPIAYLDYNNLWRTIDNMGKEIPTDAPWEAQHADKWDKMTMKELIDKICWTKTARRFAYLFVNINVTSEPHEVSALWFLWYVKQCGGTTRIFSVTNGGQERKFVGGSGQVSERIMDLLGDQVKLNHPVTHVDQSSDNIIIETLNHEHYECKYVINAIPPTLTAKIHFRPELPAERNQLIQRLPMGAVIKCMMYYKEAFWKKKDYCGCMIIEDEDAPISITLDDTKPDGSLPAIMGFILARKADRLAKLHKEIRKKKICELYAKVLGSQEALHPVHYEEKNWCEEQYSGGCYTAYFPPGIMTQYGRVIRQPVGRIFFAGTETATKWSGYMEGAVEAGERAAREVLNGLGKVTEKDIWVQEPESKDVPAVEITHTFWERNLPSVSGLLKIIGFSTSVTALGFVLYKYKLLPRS
- Assay Remarks: Inhibition of human recombinant MAO-A expressed in insect cells assessed as inhibition of 4-hydroxyquinoline formation using kynuramine as substrate incubated for 75 mins by spectrophotometric analysis
Endpoint: IC50 (µM)
Report the figure in µM without appending any unit label.

Please tell me the measured IC50 for CN(C)CCc1c[nH]c2ccccc12.O=C(O)/C=C/C(=O)O ; system: Amine oxidase [flavin-containing] A (Homo sapiens, UniProt P21397).
1.18

Please tell me the measured IC50 for O=C(O)/C=C/C(=O)O.[2H]C([2H])(Cc1c[nH]c2ccccc12)N(C)C ; system: Amine oxidase [flavin-containing] A (Homo sapiens, UniProt P21397).
1.5

----------
- Measured On: Alpha-1D adrenergic receptor (Homo sapiens)
- Assay Remarks: Displacement of [3H] prazosin from human recombinant adrenergic alpha-1d receptor expressed in HEK293 cells incubated for 60 mins by spectrophotometric analysis
Endpoint: pIC50
Remember, pIC50 is on a log scale: it is -log10 of the molar concentration.

Query pIC50 for CN(C)CCc1c[nH]c2ccccc12.O=C(O)/C=C/C(=O)O
5.51

Query pIC50 for O=C(O)/C=C/C(=O)O.[2H]C([2H])(Cc1c[nH]c2ccccc12)N(C)C
5.49

----------
- Measured On: UniProt P28222
- Assay Remarks: Displacement of [3H] GR125743 from human recombinant 5-HT1B receptor expressed in […] cells incubated for 90 mins by spectrophotometric analysis
Exercise: state measured IC50 for each of the molecules provided.
Report the figure in nM without appending any unit label.

Please tell me the measured IC50 for CN(C)CCc1c[nH]c2ccccc12.O=C(O)/C=C/C(=O)O ; system: UniProt P28222.
2420

Please tell me the measured IC50 for O=C(O)/C=C/C(=O)O.[2H]C([2H])(Cc1c[nH]c2ccccc12)N(C)C ; system: UniProt P28222.
1990

----------
- Assay Remarks: Distribution coefficient, mean logD of compound at pH 7.4 in octanol and aqueous solution incubated for 95 mins under shaking condition by LC-MS/MS analysis
- Assay type: physicochemical
Exercise: state measured logD at 1.583 h for each of the molecules provided.
Write no unit; give the number alone.

Query logD at 1.583 h for O=C(O)/C=C/C(=O)O.[2H]C([2H])(Cc1c[nH]c2ccccc12)N(C)C
0.11

Query logD at 1.583 h for CN(C)CCc1c[nH]c2ccccc12.O=C(O)/C=C/C(=O)O
0.15
